endpoint_label: melting point

Worked cases, answers included:
# compound, endpoint_label, endpoint_result
data = [
    ("O=C(O)CCCCC(=O)Oc1ccc([N+](=O)[O-])cc1", "melting point", "104 to 105 °C"),
    ("COc1cc2c(O)cnnc2cc1OCc1ccccc1", "melting point", "262 to 264 °C"),
    ("Clc1ccc(-c2nc3cccnc3n2Cc2ccccn2)cc1", "melting point", "144 to 146 °C"),
    ("CN(C)Cc1nc(CSCCNC(=C[N+](=O)[O-])NCC(O)c2ccccc2)cs1 (stereo not given)", "melting point", "100 to 101 °C"),
    ("CN(C)CCOc1ccc(Nc2nccc(-c3cccnc3)n2)cc1", "melting point", "108 to 110 °C"),
]

I'd like to know its melting point. The compound in question is `CC1(C)Cc2c(c(N3CCCC3)nc3sc4c(NCCCN5CCCC5=O)ncnc4c23)CO1`
217 °C

Would you mind doing `CNc1c(-c2cc(Cl)ccc2O)c2cc(C(F)(F)F)ccc2[nH]c1=O` as well?
238 to 240 °C

Would you mind doing `OC[C@H]1CCCC[C@H]1Nc1nccc(-n2nnc3ccccc32)n1` as well?
206 to 208 °C

Would you mind doing CN1C(=S)C(CCC(=O)O)c2ccccc21 (stereo not given) as well?
126 to 128 °C

Would you mind doing `CCC(=O)Nc1c(C)c2c(c(Cc3ccc(C(C)C)cc3)c1C)OCC2` as well?
177 to 178 °C

---

Reported values of melting point for individual entries

Worked cases, answers included:
# compound, endpoint_label, endpoint_result
data = [
    ("CC(C)(C)c1ccc(CCC(O)CC2CCCCC2)cc1NC(=O)NCC1c2ccccc2Oc2ccccc21 (stereo not given)", "melting point", "156 to 157 °C"),
    ("O=c1[nH]c2ccccc2n1C1=CCN(C2C=CC(c3ccc(F)cc3)(c3ccc(F)cc3)CC2)CC1 (stereo not given)", "melting point", "200 to 202 °C"),
    ("COc1ccc(C2(c3ccc(N(C)C)cc3)OC(=O)c3ccc(N(C)C)cc32)cc1 (stereo not given)", "melting point", "156 to 161 °C"),
    ("Cc1cc(-n2cc(-c3ccc(S(C)=O)cc3)nc2C)cc2ccc(=O)[nH]c12 (stereo not given)", "melting point", "313 to 315 °C"),
    ("O=C(O)CC1CCCc2cc(S(=O)(=O)c3ccccc3)ccc21 (stereo not given)", "melting point", "144 °C"),
]

I'd like to know its melting point. The compound in question is `CC(C)(C)OC(=O)N1C[C@H]2[C@@H](C1)C(c1ccccc1)(c1ccccc1)CC[C@@H]2O`
190 °C

Would you mind doing `CCCc1cc(=O)oc2c(C(=O)CC)c(O)c3c(c12)OC(C)(C)C=C3` as well?
96 to 98 °C

Would you mind doing `CCC1(CC)c2cc(-c3nc4ccccc4s3)ccc2-c2ccc(N(c3cccc(OC)c3)c3cccc(OC)c3)cc21` as well?
178 to 180 °C

Would you mind doing `c1ccc(-c2nn3c(N4CCCC4)nnc3c3ccccc23)cc1` as well?
245 to 247 °C

Would you mind doing `Nc1cccc(-c2ccnc3c(C(=O)c4cccs4)cnn23)c1` as well?
183 to 184 °C

Would you mind doing `N#Cc1cn2cc(Br)nc(N3CCOCC3)c2n1` as well?
265 °C

Would you mind doing `CCCCc1ncc(/C=C(\Cc2cccs2)C(=O)O)n1Cc1ccc(OCC(=O)O)cc1` as well?
192 to 194 °C

Would you mind doing `Cc1c(-c2ncncc2Br)ssc1=S` as well?
122 °C

Would you mind doing `CCOc1ccc(Nc2n[nH]c(N)c2C#N)cc1` as well?
166 to 167 °C

---

Reported values of melting point for individual entries

# compound, endpoint_result
rows = [
    ("CC(Cl)(Cl)C(NC(=O)c1cccc(Cl)c1)NC(=NC#N)Nc1cccc(F)c1 (centres undefined)", "179 to 181 °C"),
    ("CCOC(=O)/C=C(C)/C=C/C(Br)=C(/C)c1ccc2c(c1)C(C)(C)CCC2(C)C", "97 to 98.5 °C"),
    ("Cc1cn(-c2cc3nc(NN)c(=O)n(OCc4ccccc4)c3cc2C(F)(F)F)c(-c2ccccc2)n1", "127 to 130 °C"),
    ("O=C(O)CCc1c(-c2ccccc2)noc1-c1ccccc1", "152 to 153 °C"),
    ("CC(CBr)(CBr)C(=O)O", "60 to 62 °C"),
]

I'd like to know its melting point. The compound in question is CC(C)(C)OC(=O)C(Cl)=CC1C(C(=O)OC(C#N)c2ccc(F)c(Oc3ccccc3)c2)C1(C)C (centres undefined)
94 °C

Would you mind doing `COc1ccc(-c2nc(CC(N)=O)sc2-c2ccc(OC)cc2)cc1` as well?
124 to 127 °C

Would you mind doing `O=C(Cc1c(-c2ccccc2)c2cc3c(cc2oc1=O)C(=O)OC3)Nc1ccc(F)cc1C(F)(F)F` as well?
253 to 254 °C

Would you mind doing `Cc1cc(C)c2nc(C)c(C(=O)O)c(-c3ccccc3Cl)c2c1` as well?
278 to 279 °C

---

Reported values of melting point for individual entries

# compound, endpoint_result
data = [
    ("CCOC(=O)c1cn(C(C)c2c(F)cccc2F)nn1 (configuration not stated)", "118 to 121 °C"),
    ("CCOCc1nc2c(N)nc3c(c2n1CCCCS(C)(=O)=O)CCCC3", "170 to 171 °C"),
    ("CC1CN(c2ncc(C(=O)N(c3cccc(C(F)(F)F)c3)C3CCCC3)c(N)n2)C(=O)N1 (configuration not stated)", "219 to 220 °C"),
    ("O=C(Cl)c1cc(Br)c(C(=O)Cl)cc1Br", "80 to 82 °C"),
    ("COC(=O)c1cccc(CNC(=O)OC(C)(C)C)c1O", "95 to 96 °C"),
    ("O=C(Cc1cn(-c2ccccc2)nc1-c1ccc(Cl)cc1)NO", "168 to 169 °C"),
]

I'd like to know its melting point. The compound in question is CNC(=O)NC1CC(N)(C(=O)O)C2C(C(=O)O)C12 (configuration not stated)
> 275 °C

---

endpoint_label: melting point

# compound, endpoint_label, endpoint_result
records = [
    ("CC(C)C1CNCc2cccc3[nH]c(=O)n1c23 (stereo unspecified)", "melting point", "167 °C"),
    ("CNc1cc(C)nc2c(S(=O)(=O)c3ccc(C)cc3)c(SC)nn12", "melting point", "> 230 °C"),
]

I'd like to know its melting point. The compound in question is `COC(=O)n1c(Cl)nc2c(C)cccc21`
90 to 91 °C

Would you mind doing `CCCCCCCCCCCCCCCCCCOc1ccc(NC(=O)OC(C)(C)C)cc1` as well?
66 to 67 °C

Would you mind doing `CC(=O)Nc1ccc2c(c1)[nH]c(=O)c(=O)n2CP(=O)(O)O` as well?
120 °C

Would you mind doing CC(C(=O)O)c1ccc2c(-c3ccc(Cl)cc3)noc2c1 (stereo unspecified) as well?
176 to 179 °C

Would you mind doing `Cc1sc(-c2ccc(Cl)cc2)nc1O` as well?
198 to 199 °C

Would you mind doing `COCc1ccc2sc(C(=O)OC)c(C)c2c1` as well?
88 to 89 °C

Would you mind doing `CC1(C)Cc2ccc(Cl)cc2C=[N+]1[O-]` as well?
88 to 89 °C

Would you mind doing CCCCC(C)(C)C(NC(=O)c1ccc(Cl)cc1)NC(=NC#N)Nc1cccnc1 (stereo unspecified) as well?
168 to 170 °C

Would you mind doing CNC(=O)N(O)C(C)C#Cc1ccc(C)cc1 (stereo unspecified) as well?
137 to 138 °C

---

Reported values of melting point for individual entries

Worked cases, answers included:
# compound, endpoint_label, endpoint_result
records = [
    ("CC(C)(C)OC(=O)Nc1cc(Cl)c(I)cc1[N+](=O)[O-]", "melting point", "82 to 84 °C"),
    ("CC(C)NC(C)C(=O)Nc1cccc2c1C(=O)c1c(NC(=O)C(C)NC(C)C)cccc1C2=O (stereo not given)", "melting point", "105 to 106 °C"),
    ("O=c1cc(-c2ccccc2)oc2c(CN3CCC(O)CC3)c(O)c(O)c(O)c12", "melting point", "221 °C"),
    ("CCc1c(C#N)c(-c2ccc(C#N)cc2)c(C)n1Cc1cnc(Cl)c(CO)c1", "melting point", "126 to 127 °C"),
]

Kindly consider the entry below.
I'd like to know its melting point. The compound in question is CC(C)=C(C)CCC(C)C1CCC2(C)C3CCC4C(C)(C)C(O)CCC45CC35CCC12C (stereo not given)
165 to 166 °C
